test system: HeLa; test: Antiproliferative activity against human HeLa cells after 72 hrs by MTT assay; assay type: functional, cell-based
# IC50 per entry

| Chemical structure | Assayed target | Recorded measurement |
| --- | --- | --- |
| CC(C)=CC[C@H]1C[C@@]23C[C@@H](CC=C(C)C)C(C)(C)[C@@](CC=C(C)C)(C(=O)C(C(=O)c4ccc(O)c(OC(=O)CCCCCBr)c4)=C2OC1(C)C)C3=O | HeLa | > 20 µM |
| CC(C)=CC[C@H]1C[C@@]23C[C@@H](CC=C(C)C)C(C)(C)[C@@](CC=C(C)C)(C(=O)C(C(=O)c4ccc(O)c(OS(=O)(=O)c5ccc(C)cc5)c4)=C2OC1(C)C)C3=O | HeLa | 18.4 µM |
| C=CC(=O)Oc1ccc(C(=O)C2=C3OC(C)(C)[C@@H](CC=C(C)C)C[C@@]34C[C@@H](CC=C(C)C)C(C)(C)[C@@](CC=C(C)C)(C2=O)C4=O)cc1OC(=O)C=C | HeLa | 10.1 µM |
| CC(C)=CC[C@H]1C[C@@]23C[C@@H](CC=C(C)C)C(C)(C)[C@@](CC=C(C)C)(C(=O)C(C(=O)c4ccc(OS(=O)(=O)c5ccc(C)cc5)c(OS(=O)(=O)c5ccc(C)cc5)c4)=C2OC1(C)C)C3=O | HeLa | 6.25 µM |

Form: compound = `C#CCOc1ccc(C(=O)C2=C3OC(C)(C)[C@@H](CC=C(C)C)C[C@@]34C[C@@H](CC=C(C)C)C(C)(C)[C@@](CC=C(C)C)(C2=O)C4=O)cc1OCC#C` ; IC50 = > 20 µM

Form: compound = `C=C(C)[C@@H](CC=C(C)C)C[C@]12C[C@@H](CC=C(C)C)C(C)(C)[C@](CC=C(C)C)(C1=O)c1oc3cc(O)c(O)cc3c(=O)c1C2=O` ; IC50 = > 20 µM

Form: compound = `CC(C)=CC[C@H]1C[C@]23C[C@@H](CC=C(C)C)C(C)(C)[C@H]4CCC(C)(C)O[C@]42OC(=O)C(C(=O)c2ccc(OC(=O)c4ccccc4)c(OC(=O)c4ccccc4)c2)=C3OC1(C)C` ; IC50 = > 20 µM

----------
# IC50 per entry
test system: K562; assay: Antiproliferative activity against human K562 cells after 72 hrs by MTT assay; type: functional, cell-based; settings: K562, 72 h
Write down the numeric answer in µM and omit the unit.

Field: example entries. Status: answers known.
| Compound | Test readout | Recorded measurement |
| --- | --- | --- |
| CC(C)=CC[C@H]1C[C@]23C[C@@H](CC=C(C)C)C(C)(C)[C@H]4CCC(C)(C)O[C@]42OC(=O)C(C(=O)c2ccc(O)c(O)c2)=C3OC1(C)C | IC50 | 7.69 |
| COc1ccc(C(=O)C2=C3OC(C)(C)[C@@H](CC=C(C)C)C[C@@]34C[C@@H](CC=C(C)C)C(C)(C)[C@@](CC=C(C)C)(C2=O)C4=O)cc1O | IC50 | 14.5 |
| CC(C)=CC[C@H]1C[C@@]23C[C@@H](CC=C(C)C)C(C)(C)[C@@](CC=C(C)C)(C(=O)C(C(=O)c4ccc(O)c(OC(=O)CCCCCBr)c4)=C2OC1(C)C)C3=O | IC50 | 14.5 |
| COc1cccc2c1C(=O)c1c(O)c3c(c(O)c1C2=O)C[C@@](O)(C(=O)CO)C[C@@H]3O[C@H]1C[C@H](N)[C@H](O)[C@H](C)O1 [DOXORUBICIN] | IC50 | 0.65 |
| C=CC(=O)Oc1cc(C(=O)C2=C3OC(C)(C)[C@@H](CC=C(C)C)C[C@@]34C[C@@H](CC=C(C)C)C(C)(C)[C@@](CC=C(C)C)(C2=O)C4=O)ccc1O | IC50 | 10.7 |
| CC(C)=CC[C@H]1C[C@@]23C[C@@H](CC=C(C)C)C(C)(C)[C@@](CC=C(C)C)(C(=O)C(C(=O)c4ccc(O)c(OC(=O)c5cccs5)c4)=C2OC1(C)C)C3=O | IC50 | 13.9 |

Form: compound = `C=C(C)[C@@H](CC=C(C)C)C[C@@]12C[C@@H](CC=C(C)C)C(C)(C)[C@@](CC=C(C)C)(C(=O)c3c1oc1cc(O)c(O)cc1c3=O)C2=O` ; IC50 = 10.4

Form: compound = `C#CCOc1ccc(C(=O)C2=C3OC(C)(C)[C@@H](CC=C(C)C)C[C@@]34C[C@@H](CC=C(C)C)C(C)(C)[C@@](CC=C(C)C)(C2=O)C4=O)cc1OCC#C` ; IC50 = 17.6

Form: compound = `CCC(=O)Oc1cc(C(=O)C2=C3OC(C)(C)[C@@H](CC=C(C)C)C[C@@]34C[C@@H](CC=C(C)C)C(C)(C)[C@H]3CCC(C)(C)O[C@]34OC2=O)ccc1O` ; IC50 = 12.1
